# Test system: 인간 CD47 단백질 (Human CD47, SPR analyte) (human, UniProt Q08722 19-139, limits assumed)
# Sequence (Q08722 19-139 limits assumed): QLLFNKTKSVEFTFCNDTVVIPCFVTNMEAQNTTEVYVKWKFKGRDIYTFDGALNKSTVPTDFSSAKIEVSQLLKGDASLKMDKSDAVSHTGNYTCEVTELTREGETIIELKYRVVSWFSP
# Method notes: SPR, Biacore 8K, antibody captured, human CD47 as analyte

{"columns": ["Binder", "kon, M⁻¹ s⁻¹"],
 "data": [
  ["AHF16310 전장 항체 (full length antibody, IgG4) (antibody, V domains shown, also called AHF16310 항체) VH: EVQLVQSGSELKKPGASVKVSCKASGYTFTSYWMHWMRQAPGQGLEWIGVIDPNDSYTSYNQGFTGRFVLSVDTSVSTAYLQISSLKAEDTAVYYCARGGKRMMDYWGQGTTVTVSS VL: DVVMTQSPLSLPVTLGQPASISCRSSQSLVHSNGNTYLHWFQQRPGQSPRLLIYKVSNRFTGVPDRFSGSGSGTDFTLKISRVEAEDVGVYYCSQSTHVPFTFGGGTKLEIKR", "2.21e+06"]
]}
